Recorded Ki, one value per entry.
biological target: human recombinant dopamine D2 receptor (Homo sapiens (Human)); assay: Test of binding inhibition for dopamine D2 receptor ([3H]-Methylspiperone SPA); details: Jump-In HEK cell membranes, 1.2 nM [3H]-Methylspiperone, 120 min at 25° C.; read-out: hD2_Ki
Sequence (P14416 whole entry): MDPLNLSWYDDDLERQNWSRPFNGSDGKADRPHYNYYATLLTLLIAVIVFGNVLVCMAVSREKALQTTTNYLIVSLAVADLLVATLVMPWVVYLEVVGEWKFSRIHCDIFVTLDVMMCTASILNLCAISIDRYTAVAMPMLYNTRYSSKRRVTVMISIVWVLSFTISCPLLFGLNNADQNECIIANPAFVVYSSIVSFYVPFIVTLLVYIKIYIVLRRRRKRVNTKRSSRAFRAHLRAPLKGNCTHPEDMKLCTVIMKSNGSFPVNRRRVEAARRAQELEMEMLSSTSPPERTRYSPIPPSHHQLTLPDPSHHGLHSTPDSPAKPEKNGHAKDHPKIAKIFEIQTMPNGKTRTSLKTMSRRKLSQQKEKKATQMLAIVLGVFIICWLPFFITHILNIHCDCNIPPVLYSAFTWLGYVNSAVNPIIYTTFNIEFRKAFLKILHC

# example entries with known answers
{"smilesString": "Cc1cnc(CC(=O)N[C@H]2CC[C@](F)(CCN3CCc4nc(OCCC(F)(F)F)sc4CC3)CC2)o1", "assayTarget": "human recombinant dopamine D2 receptor (Homo sapiens (Human))", "readoutValue": "> 2.2 µM"}
{"smilesString": "Cc1nc(CC(=O)N[C@H]2CC[C@](F)(CCN3CCc4ccc(OCC(C)(F)F)nc4CC3)CC2)no1", "assayTarget": "human recombinant dopamine D2 receptor (Homo sapiens (Human))", "readoutValue": "> 1.8 µM"}

Okay, now this compound:
Read off the recorded Ki for Cc1ncc(CC(=O)N[C@H]2CC[C@H](CCN3CCc4ccc(OC5CCC5)nc4CC3)CC2)o1
> 2.2 µM
